Values were extracted from patent US10076519B2.

Test system: rabbit skeletal myofibrils (fast skeletal myofibrils)
assay protocol: Activation of fast skeletal myofibrils (PUMA assay, PK/LDH-coupled ATPase at pCa25)
Type: biochemical
experimental context: AC1.4 determined according to the procedure of Example 39; reported as class symbols
quantity kind: Mean AC1.4

Take a look at these entries with their results.
Consider the compound Fc1cccnc1C1(CNc2ccc(-c3ccc4[nH]ncc4c3)nn2)CNC1 tested on rabbit skeletal myofibrils (fast skeletal myofibrils); state its Mean AC1.4.
D (D=>20 uM)

Fill in: Mean AC1.4 on rabbit skeletal myofibrils (fast skeletal myofibrils), entry CC(C)(CNc1ccc(-c2cnc3cc[nH]c3c2)nn1)c1ccc(F)cc1
A (A=<1 uM)

Identify measured Mean AC1.4 obtained with rabbit skeletal myofibrils (fast skeletal myofibrils) for CC(C)(CNc1ccc(-c2cccc(C#N)c2)nn1)c1ccc(F)cc1 .
B (B=1-10 uM)

For rabbit skeletal myofibrils (fast skeletal myofibrils), give Mean AC1.4 of the listed compound: CC(Nc1ccc(-c2cccc(C(N)=O)c2)nn1)c1ccccc1 (centres unmarked)
D (D=>20 uM)

Specify Mean AC1.4 for CC(C)(CNc1ccc(C2=CCNCC2)nn1)c1ccc(F)cc1 , system rabbit skeletal myofibrils (fast skeletal myofibrils).
B (B=1-10 uM)

---
Provide measured Mean AC1.4 on rabbit skeletal myofibrils (fast skeletal myofibrils) for CC(C)(C)OC(=O)N1CCN(C(=O)c2ccc(NCC(C)(C)c3ccc(F)cc3)nn2)C(CO)C1 (centres unmarked) please.
D (D=>20 uM)

Please report the measured Mean AC1.4 for Fc1cccnc1C1(CNc2ccc(-c3ccccc3OC(F)(F)F)nn2)CCC1 tested on rabbit skeletal myofibrils (fast skeletal myofibrils).
A (A=<1 uM)

====

System: rabbit skeletal myofibrils (fast skeletal myofibrils)
assay protocol: Activation of fast skeletal myofibrils (PUMA assay, PK/LDH-coupled ATPase at pCa25)
Assay type: biochemical
experimental context: median AC1.4 class, procedure of Example 39
quantity kind: Mean AC1.4

Past entries and their recorded results:
Determine from records and report Mean AC1.4 for NC(=O)c1ccc(F)c(-c2ccc(NC3(c4ncccc4F)CCC3)nn2)c1
B (B=1-10 uM)

Read off the recorded Mean AC1.4 for NC(=O)Nc1ccc(-c2ccc(NCC3(c4ncccc4F)CCC3)nn2)cn1
B (B=1-10 uM)

Supply measured Mean AC1.4 of NC(=O)c1cccc(-c2ccc(NC3(c4cccc(F)c4)CCC3)nn2)c1 in your reply.
B (B=1-10 uM)

Check the records and state Mean AC1.4 for CC(C)(CNc1ccc(-c2ccc3[nH]nc(NCCO)c3c2)nn1)c1ccc(F)cc1
A (A=<1 uM)

More entries:
Given the molecule NCC(F)(F)CNC(=O)c1cnc(-c2ccc(NCC3(c4ncccc4F)CCC3)nn2)s1 , write its reported Mean AC1.4.
A (A=<1 uM)

Supply Mean AC1.4 value. Item: CC(C)(CNc1ccc(-c2ncc(C(N)=O)s2)nn1)c1ncccc1F
A (A=<1 uM)

Query Mean AC1.4 for CC(C)(CNc1ccc(-c2ncc(CNC(=O)[C@@H]3CCCN3)s2)nn1)c1ncccc1F
B (B=1-10 uM)

====

System: rabbit skeletal myofibrils (fast skeletal myofibrils)
assay protocol: Activation of fast skeletal myofibrils (PUMA assay, PK/LDH-coupled ATPase at pCa25)
Format: biochemical
experimental context: AC1.4 determined according to the procedure of Example 39; reported as class symbols
quantity kind: Mean AC1.4

Tell us which Mean AC1.4 value is on record for NC(=O)c1ccc(F)c(-c2ccc(NCC3(c4ccccn4)CCC3)nn2)c1
A (A=<1 uM)

Using known records, supply Mean AC1.4 for Oc1ccnc(C2(CNc3ccc(-c4ccc5cn[nH]c5c4)nn3)CCC2)c1
D (D=>20 uM)

Answer with the recorded Mean AC1.4 of COC(=O)c1ccc(NCC(C)(C)c2ccc(F)cc2)nn1 only.
C (C=10-20 uM)

Name the recorded Mean AC1.4 of the compound listed here: CC(C)(CNc1ccc(-c2cccc(C(N)=O)c2)nn1)c1ccc(F)cn1
C (C=10-20 uM)

New cases:
Determine from records and report Mean AC1.4 for CC(C)(CNc1ccc(C(=O)NCC2CCC(=O)N2)nn1)c1ccc(F)cc1 (stereo not drawn)
C (C=10-20 uM)

Supply measured Mean AC1.4 of CC(C)(CNc1ccc(-c2cccc(CN)c2)nn1)c1ccc(F)cc1 in your reply.
B (B=1-10 uM)

Quote Mean AC1.4 reported for N#Cc1ccc(C2(CNc3ccc(-c4ccc5[nH]ncc5c4)nn3)CCC2)nc1 please.
B (B=1-10 uM)

Quick one: give measured Mean AC1.4 for CC(C)(CNc1ccc(-c2ccccc2C(N)=O)nn1)c1ccc(F)cc1
B (B=1-10 uM)

Identify measured Mean AC1.4 associated with COc1ccc(CCNc2ccc(-c3cccc(C(N)=O)c3)nn2)cc1
D (D=>20 uM)

Answer with the recorded Mean AC1.4 of CC(C)(CNc1ccc(-c2cccc(C#N)c2)nn1)OCc1ccccc1 only.
D (D=>20 uM)

Supply reported Mean AC1.4 belonging to this compound: C[C@@H](CNc1ccc(-c2cccc(C(N)=O)c2)nn1)c1ccc(F)cc1
B (B=1-10 uM)

Give the value of Mean AC1.4 reported for the following: CC(C)(CNc1ccc(-c2cncc(C#N)c2)nn1)c1ccc(F)cc1
B (B=1-10 uM)

Supply reported Mean AC1.4 belonging to this compound: N#Cc1cccc(-c2ccc(NCCc3ccc(Cl)cc3Cl)nn2)c1
D (D=>20 uM)

Give Mean AC1.4 for CC(C)(C)OC(=O)N(CC(C)(C)c1ccc(F)cc1)c1ccc(-c2cc(=O)[nH]c(N)n2)nn1
B (B=1-10 uM)

Let me know recorded Mean AC1.4 for NC(=O)c1ccc(F)c(-c2ccc(NCC3(c4ncccc4F)CCC3)nn2)c1 , thanks.
A (A=<1 uM)

====

Test system: rabbit skeletal myofibrils (fast skeletal myofibrils)
assay protocol: Activation of fast skeletal myofibrils (PUMA assay, PK/LDH-coupled ATPase at pCa25)
Assay type: biochemical
experimental context: median AC1.4 class, procedure of Example 39
quantity kind: Mean AC1.4

Record excerpt, results attached:
# return recorded Mean AC1.4 for input N#Cc1sc(-c2ccc(NCC3(c4ncccc4F)CCC3)nn2)nc1O
D (D=>20 uM)

Find the measured Mean AC1.4 of O=c1[nH]c(-c2cnc(-c3ccc(NCC4(c5ncccc5F)CCC4)nn3)s2)no1 and report it.
B (B=1-10 uM)

# return recorded Mean AC1.4 for input Fc1cccnc1C1(Nc2ccc(-c3ccc4nc[nH]c4c3)nn2)CCC1
B (B=1-10 uM)

Report Mean AC1.4, nothing else, for this compound: Fc1cccnc1C1(CNc2ccc(-c3ncc(-c4cc[nH]n4)s3)nn2)CCC1
A (A=<1 uM)

Specify measured Mean AC1.4 for COC(=O)c1coc(-c2ccc(NCC3(c4ncccc4F)CCC3)nn2)n1 .
D (D=>20 uM)

Please supply the value of reported Mean AC1.4 for the item COc1ncccc1-c1ccc(NC2(c3ccc(F)cc3)CCC2)nn1
A (A=<1 uM)

Look up and report measured Mean AC1.4 for this entry: Fc1cccnc1C1(CNc2ccc(C3CNC3)nn2)CCC1
D (D=>20 uM)

Find the measured Mean AC1.4 of CNC(=O)c1cnc(-c2ccc(NCC3(c4ncccc4F)CCC3)nn2)s1 and report it.
A (A=<1 uM)

Name the recorded Mean AC1.4 of the compound listed here: CCOC(=O)/C=C/c1ccc(NC2(c3ncccc3F)CCC2)nn1
D (D=>20 uM)

Turning now to a further record.
Item CC(=O)NCc1cnc(-c2ccc(NCC3(c4ncccc4F)CCC3)nn2)s1 : provide Mean AC1.4
A (A=<1 uM)

====

Test system: rabbit skeletal myofibrils (fast skeletal myofibrils)
assay protocol: Activation of fast skeletal myofibrils (PUMA assay, PK/LDH-coupled ATPase at pCa25)
Type: biochemical
experimental context: AC1.4 determined according to the procedure of Example 39; reported as class symbols
quantity kind: Mean AC1.4

# example entries with known answers
Specify Mean AC1.4 for NC(=O)c1cccc(-c2ccc(NCC3(C(=O)O)CCC3)nn2)c1 , system rabbit skeletal myofibrils (fast skeletal myofibrils).
D (D=>20 uM)

# lookup: rabbit skeletal myofibrils (fast skeletal myofibrils) Mean AC1.4, key = CC(C)(CNc1ccc(-c2ccc3[nH]nc(N)c3c2)nn1)c1cccc(CN)c1
C (C=10-20 uM)

Using rabbit skeletal myofibrils (fast skeletal myofibrils) as the test system, report measured Mean AC1.4 of CC(C)(CNc1ccc(C(=O)N2CCNC(=O)C2)nn1)c1ccc(F)cc1 .
D (D=>20 uM)

# lookup: rabbit skeletal myofibrils (fast skeletal myofibrils) Mean AC1.4, key = Cc1nc2ccc(-c3ccc(NCC(C)(C)c4ccc(F)cc4)nn3)cc2o1
B (B=1-10 uM)

***
State the measured Mean AC1.4 (rabbit skeletal myofibrils (fast skeletal myofibrils)) of CC(C)(CNc1ccc(C(=O)N[C@H](Cc2ccccc2)C(N)=O)nn1)c1ccc(F)cc1
C (C=10-20 uM)

# assay system rabbit skeletal myofibrils (fast skeletal myofibrils): give Mean AC1.4 of c1cnc(C2(CNc3ccc(-c4ccc5cn[nH]c5c4)nn3)CCC2)cn1
C (C=10-20 uM)

Fill in Mean AC1.4 for CC(C)(C)OC(=O)N(CC(C)(C)c1ccc(F)cc1)c1ccc(-c2cccc(C(N)=O)c2)nn1 tested with rabbit skeletal myofibrils (fast skeletal myofibrils).
D (D=>20 uM)

Report Mean AC1.4 on rabbit skeletal myofibrils (fast skeletal myofibrils) for this entry: NC(=O)c1cccc(-c2ccc(NCCc3cccc(Cl)c3)nn2)c1
B (B=1-10 uM)

Name the recorded Mean AC1.4 of OCC1(CNc2ccc(-c3ccc4[nH]ncc4c3)nn2)CCC1 , assay system rabbit skeletal myofibrils (fast skeletal myofibrils).
D (D=>20 uM)

Give reported Mean AC1.4 for NC(=O)n1nc(N)c2cc(-c3ccc(NCC4(c5ncccc5F)CCC4)nn3)ccc21 (rabbit skeletal myofibrils (fast skeletal myofibrils))
B (B=1-10 uM)
